Test system: M14
measurementNotes: NCI tumour cell line growth inhibition, 48 h
Calls of active or inactive are those of the source. Cut-off read from the data, not from the text of the source: active = GI50 up to about 1.1 µM and inactive = higher.

- compound: "CCOC(=O)CC(=O)C(=O)NN=C1NCCCN1"
  assayTarget: "M14"
  GI50: "> 100 µM (inactive)"
- compound: "Cc1cc(N(CCC#N)CCC#N)ccc1/C=C1N=C(/C=C\\c2ccccc2)N(c2ccc(Cl)cc2)C\\1=O"
  assayTarget: "M14"
  GI50: "1.29 µM (inactive)"
- compound: "CCOC(=O)[C@H]1CSC[C@@H](C(=O)OC)N1"
  assayTarget: "M14"
  GI50: "> 100 µM (inactive)"
- compound: "CN(Cc1ccccc1)c1nc(=[N+](C)C)ss1"
  assayTarget: "M14"
  GI50: "> 100 µM (inactive)"
- compound: "O=C1N/C(=C\\[N+](=O)[O-])c2ccccc21"
  assayTarget: "M14"
  GI50: "> 100 µM (inactive)"
- compound: "CN1C[C@@H]2CCCN2P1Oc1cccc2cccnc12 (stereo partly specified)"
  assayTarget: "M14"
  GI50: "33.7 µM (inactive)"

====

Tested on: Malme-3M
measurementNotes: NCI tumour cell line growth inhibition, 48 h
The source made the active and inactive calls. Cut-off read from the data, not from the text of the source: active = GI50 up to about 1.1 µM and inactive = higher.
Possible outcomes: active, inactive

- compound: "CC(=O)CCNc1ccc(-c2cc(-c3ccc(N(C)C)cc3)nc3ccc4ccccc4c23)cc1"
  assayTarget: "Malme-3M"
  labelValue: "inactive"
- compound: "CN(CCc1ccc(N)cc1)[C@H]1CCCC[C@H]1N1CCCC1"
  assayTarget: "Malme-3M"
  labelValue: "inactive"
- compound: "CCN(CC)c1c(C(=O)/C=C/c2ccc(Cl)cc2)c(-c2ccccc2)nn(C)c1=O"
  assayTarget: "Malme-3M"
  labelValue: "inactive"
- compound: "COc1cc(Nc2ccc3c(c2)CCC3)nc(OC)n1"
  assayTarget: "Malme-3M"
  labelValue: "inactive"
- compound: "C[C@]12CCC(=O)C=C1C[C@@H](O)[C@@H]1[C@@H]2CC[C@@]2(C)[C@H]1CC[C@]2(C)O"
  assayTarget: "Malme-3M"
  labelValue: "inactive"
- compound: "CC(=O)OCC1OC(N2C(c3ccccc3)=CC(c3ccco3)C(C#N)=C2S)C(OC(C)=O)C(OC(C)=O)C1OC(C)=O (centres undefined)"
  assayTarget: "Malme-3M"
  labelValue: "inactive"
- compound: "COc1cc2cc3c4c(cc(OC)c(OC)c4c2cc1OC)CCN3C(=O)OCCN1CCNCC1"
  assayTarget: "Malme-3M"
  labelValue: "inactive"
- compound: "O=[N+]([O-])c1ccc(-c2nc3ccccc3o2)cc1"
  assayTarget: "Malme-3M"
  labelValue: "inactive"
- compound: "C[C@H]1O[C@@H](O[C@H]2[C@@H](O)C[C@H](O[C@H]3[C@@H](O)C[C@H](O[C@H]4CC[C@@]5(C)[C@H](CC[C@@H]6[C@@H]5CC[C@]5(C)[C@@H](C7=CC(=O)OC7)[C@@H](O)C[C@]65O)C4)O[C@@H]3C)O[C@@H]2C)C[C@H](O)[C@@H]1O"
  assayTarget: "Malme-3M"
  labelValue: "active"

====

System: UACC-62
measurementNotes: NCI tumour cell line growth inhibition, 48 h
Calls of active or inactive are those of the source. Cut-off read from the data, not from the text of the source: active = GI50 up to about 1.1 µM and inactive = higher.
Possible outcomes: True = active, False = inactive

- molecule: "CCOC(=O)n1cncc1CC(NC(=O)Cc1c(C(=O)C=C(C)C)[nH]c2ccccc12)C(=O)OC (configuration not stated)"
  labelValue: "False"
- molecule: "CCc1ccccc1-n1c2nc(=O)n(C)c(=O)c-2nc2ccccc21"
  labelValue: "False"
- molecule: "CC(C)[C@@H]1CC[C@@H](C)C[C@H]1OC(=O)/C=C1\\C(C(=O)O[C@@H]2C[C@H](C)CC[C@H]2C(C)C)[C@H]2C=C[C@@H]1O2 (some centres not stated)"
  labelValue: "False"
- molecule: "COc1ccc2[nH]c3c(c2c1)CC(=O)N1CCCC(CC3O)C1 (configuration not stated)"
  labelValue: "False"
- molecule: "COc1ccc(/C=N/NS(=O)(=O)c2ccc(/C=C3\\NC(=O)NC3=O)cc2)cc1"
  labelValue: "False"
- molecule: "COC1=CC(=O)OC(/C=C(C)/C=C/C2=C(C)CCCC2(C)C)C1 (configuration not stated)"
  labelValue: "False"
- molecule: "COc1ccc(Nc2cnc3cc(N)ccc3n2)cc1OC"
  labelValue: "False"
- molecule: "Cc1ccc(-c2c(-c3ccccc3)[nH]c(C)c2C(=O)ONC(=O)c2ccccc2)cc1"
  labelValue: "False"
- molecule: "C=CN1C(=O)OC[C@@H]1c1ccccc1"
  labelValue: "False"
- molecule: "Cn1c2ccccc2n2c3ncccc3c(=S)c(C#N)c12"
  labelValue: "False"
- molecule: "CC1=C(C(=O)N(C)c2ccc(Cl)c(C(=O)OC(C)C)c2)SCCO1"
  labelValue: "False"
- molecule: "Cc1cc(NS(=O)(=O)c2ccc(Nc3c4ccccc4nc4c(C(=O)NCCN(C)C)ccc(Cl)c34)cc2)no1"
  labelValue: "False"
- molecule: "CN(/N=C/c1ccc(Cl)c(Cl)c1)C1=NCCN1"
  labelValue: "False"
- molecule: "COc1ccc(-n2c3c(c4c(CN(C)C)c(O)ccc42)C(=O)c2ccccc2C3=O)cc1"
  labelValue: "False"
- molecule: "CN/N=C(/CCN1CCCC1)CC(c1ccccc1)c1c(O)c2ccccc2oc1=O (configuration not stated)"
  labelValue: "False"
- molecule: "CSc1nc(Nc2cccc(C(F)(F)F)c2)c2c(N)nn(C)c2n1"
  labelValue: "False"
- molecule: "C=C(c1ccccc1)[C@@]1(O)CC[C@@H]1N(CC#N)Cc1ccccc1"
  labelValue: "False"
- molecule: "C=C(C)[C@H]1C2=CC(C)=C(O2)[C@@H](O[C@@H]2c3oc(cc3C)[C@H](C(=C)C)[C@H]3C=C(CC[C@H]2C(=C)C)C(=O)O3)[C@H](C(=C)C)CCC2=C[C@H]1OC2=O"
  labelValue: "False"
- molecule: "CN1C[C@@H]2CCCN2P1Oc1cccc2cccnc12 (some centres not stated)"
  labelValue: "False"
- molecule: "c1ccc(COc2cccc3ccc[n+](Cc4ccccc4)c23)cc1"
  labelValue: "False"
- molecule: "O=C1CC(S(=O)(=O)O)C=C1Nc1cccc(Cl)c1 (configuration not stated)"
  labelValue: "False"
- molecule: "Cc1ccc(-c2n[nH]c(=O)n2N)cc1"
  labelValue: "False"
- molecule: "N#CC1(C#N)C(c2ccccc2)NC23CCCCC2C1(C#N)C(=O)N3 (configuration not stated)"
  labelValue: "False"
- molecule: "Oc1c(CN2CCN(c3ccccc3)CC2)cc(Br)c2cccnc12"
  labelValue: "True"
- molecule: "C#CCCCOc1ncccn1"
  labelValue: "False"
- molecule: "CCn1c(SCC(=O)NNC(=S)Nc2ccc([N+](=O)[O-])cc2)nc2ccccc2c1=O"
  labelValue: "False"
- molecule: "CC(=O)OC1C=CC2CCN3C(=O)c4cc5c(cc4[C@H]1C23)OCO5 (some centres not stated)"
  labelValue: "False"
- molecule: "O=C(O[C@H]1[C@@H]2C=CO[C@@H](OC3OC(CO)C(O)C(O)C3O)[C@@H]2[C@@]2(CO)O[C@@H]12)c1ccc(O)c(O)c1 (some centres not stated)"
  labelValue: "False"
- molecule: "COC(=O)Oc1nn(C(=O)OC)c(=O)c2ccccc12"
  labelValue: "False"
- molecule: "Clc1ccccc1C(Nc1cnccn1)Nc1cnccn1"
  labelValue: "False"
- molecule: "COC1C(=O)N(SC)C1c1ccccc1Cl (configuration not stated)"
  labelValue: "False"
- molecule: "CC(=O)OCC1OC(N2C(S)=C(C#N)C(c3ccco3)C(C(C)=O)=C2c2ccccc2)C(OC(C)=O)C(OC(C)=O)C1OC(C)=O (configuration not stated)"
  labelValue: "False"

====

Known GI50 of a selection of compounds
Tested on: A549
measurementNotes: NCI tumour cell line growth inhibition, 48 h
Activity calls are given as the source filed them. Rule as the data show it: active = GI50 up to about 1.1 µM and inactive = higher.

- compound: "CCOC(=O)CC(=O)C(=O)NN=C1NCCCN1"
  GI50: "> 100 µM (inactive)"
- compound: "Nc1ccc(S(=O)(=O)c2ccc(NCN3C(=O)NC(=O)C(=O)C3=O)cc2)cc1"
  GI50: "> 100 µM (inactive)"
- compound: "O=C(O)/C(O)=C1/C=C(c2ccccc2)c2ccccc21"
  GI50: "26.2 µM (inactive)"
- compound: "CC(C)OP(=O)(OC(C)C)/C(F)=N/Nc1ccc([N+](=O)[O-])cc1"
  GI50: "> 100 µM (inactive)"
- compound: "CCOC(=S)SC/C(=N\\OC(C)(C)OC)c1ccccc1"
  GI50: "44.7 µM (inactive)"
- compound: "Cc1ccc(C(=O)Nc2ccc(CP(=O)(O)O)cc2CP(=O)(O)O)cc1NC(=O)c1cccc(NC(=O)Nc2cccc(C(=O)Nc3cc(C(=O)Nc4ccc(CP(=O)(O)O)cc4CP(=O)(O)O)ccc3C)c2)c1"
  GI50: "> 100 µM (inactive)"
- compound: "NC(CCc1nc(-c2cccc([N+](=O)[O-])c2)cs1)C(=O)O (centres undefined)"
  GI50: "> 100 µM (inactive)"
- compound: "CC(=O)Oc1ccc2c(c1)O/C(=C\\c1ccc(N(C)C)cc1)C2=O"
  GI50: "> 100 µM (inactive)"
- compound: "CN1CCN(Cc2ccccc2)CC1CC#N (centres undefined)"
  GI50: "> 100 µM (inactive)"
- compound: "CCc1ccccc1-n1c2nc(=O)n(C)c(=O)c-2nc2ccccc21"
  GI50: "8.24 µM (inactive)"
- compound: "CCCCCCc1cc2cc(-c3cn4c(n3)sc3ccccc34)c(=O)oc2cc1O"
  GI50: "> 100 µM (inactive)"
- compound: "O=c1cc(-c2ccccc2)[nH]c2c(F)ccc(F)c12"
  GI50: "37.9 µM (inactive)"
- compound: "O=[N+]([O-])C(C(Cl)=C(Cl)Cl)=C(N(Cc1ccccc1)Cc1ccccc1)N(Cc1ccccc1)Cc1ccccc1"
  GI50: "> 100 µM (inactive)"
- compound: "CC1(C)CC(C2CC(C)(C)CC(C)(C)[C@H]2O)[C@@H](O)C(C)(C)C1 (some centres undefined)"
  GI50: "> 100 µM (inactive)"
